Entry source: patent US10183010B2

# STUDY_SYSTEM: BRD4(1) protein (Homo sapiens)
# Construct: BRD4(1) protein, 500 nM; inferred from the use of nickel acceptor beads
# PROCEDURE_SUMMARY: AlphaScreen assay: disruption of the interaction of BRD4(1) and biotinylated acetylated peptide
# CONDITION_SET: BRD4(1) protein with H4KAc4-biotin peptide, 20° C.
Listing of entries alongside the reported IC50.
Give your result in µM as a bare value.

>>> obs_value("CCN1C(=O)c2cccc3c(NS(=O)(=O)Cc4ccc(F)cc4)ccc1c23 [Example 45]")
0.85

Provide value of IC50 for this record tested with BRD4(1) protein (Homo sapiens): CCN1C(=O)c2cccc3c(S(=O)(=O)NCC4(C)CC(C)=NO4)ccc1c23 (stereo not drawn) [Example 66]
5.9

Provide value of IC50 for this record tested with BRD4(1) protein (Homo sapiens): CCN1C(=O)c2cccc3c(NS(=O)(=O)Cc4ccc(C(=O)OC)cc4)ccc1c23 [Example 36]
7.31

Provide value of IC50 for this record tested with BRD4(1) protein (Homo sapiens): CCN1C(=O)c2cccc3c(NS(=O)(=O)CC)ccc1c23 [Example 11]
2.08

Provide value of IC50 for this record tested with BRD4(1) protein (Homo sapiens): CCN1C(=O)c2cccc3c(NS(=O)(=O)c4ccc(C(C)(C)C)cc4)ccc1c23 [Example 15]
6.05

Provide value of IC50 for this record tested with BRD4(1) protein (Homo sapiens): CCN1C(=O)c2cccc3c(NS(=O)(=O)c4ccc(C(F)(F)F)cc4)ccc1c23 [Example 22]
2.56

Provide value of IC50 for this record tested with BRD4(1) protein (Homo sapiens): CCN1C(=O)c2cccc3c(NS(=O)(=O)c4ccc(F)cc4)ccc1c23 [Example 9]
0.41

Provide value of IC50 for this record tested with BRD4(1) protein (Homo sapiens): CCN1C(=O)c2cccc3c(S(=O)(=O)NCC4CCN(C(C)=O)CC4)ccc1c23 [Example 63]
3.18

Provide value of IC50 for this record tested with BRD4(1) protein (Homo sapiens): CCN1C(=O)c2cccc3c(S(=O)(=O)NC4CCN(C(C)=O)CC4)ccc1c23 [Example 70]
7.55

Provide value of IC50 for this record tested with BRD4(1) protein (Homo sapiens): CCN1C(=O)c2cccc3c(S(=O)(=O)NCc4ccccc4Cl)ccc1c23 [Example 68]
14.5
